The values you see were collected from patent US20110245249A1.

# log p [c] per entry
# Protocol description: logP by HPLC on reversed-phase columns (EEC Directive 79/831 Annex V.A8)
# Assay type: physicochemical
# Recorded conditions: pH 7.8
Result type: log p [c]

[[record]]
compound = "Clc1cnc(Nc2cccc(C3OCC(Cl)CO3)c2)nc1NC1CC1 (stereo not drawn)"
reported = 3.33

[[record]]
compound = "Cc1cnc(Nc2cccc(C3OCCCO3)c2)nc1NC1CC1"
reported = 2.37

[[record]]
compound = "COCC1COC(c2cccc(Nc3ncc(Br)c(NC4CC4)n3)c2)O1 (stereo not drawn)"
reported = 3.02

[[record]]
compound = "CC1OC(c2cccc(Nc3ncc(Br)c(NC4CCC4)n3)c2)OC1C (stereo not drawn)"
reported = 4.12

[[record]]
compound = "FC(F)(F)CNc1nc(Nc2cccc(C3OCCCO3)c2)ncc1Cl"
reported = 2.86

[[record]]
compound = "FC(F)(F)c1cnc(Nc2cccc(C3OCCO3)c2)nc1NC1CC1"
reported = 3.02

[[record]]
compound = "CC1CC1Nc1nc(Nc2cccc(C3OCCO3)c2)ncc1C(F)(F)F (stereo not drawn)"
reported = 3.58

[[record]]
compound = "CC1(C)CC(C)(C)OC(c2cccc(Nc3ncc(Cl)c(NC4CC4)n3)c2)O1"
reported = 4.32

[[record]]
compound = "Clc1cnc(Nc2cccc(C3OCC(C4CC4)CO3)c2)nc1NC1CC1 (stereo not drawn)"
reported = 3.91


###

# Protocol description: logP by HPLC on reversed-phase columns (EEC Directive 79/831 Annex V.A8)
# Type: physicochemical
# Recorded conditions: pH 7.8
Threshold check on log p: at or above 4 gives T, strictly below gives F.

[[record]]
molecule = "Clc1cnc(Nc2ccc(C3OCCCO3)cc2)nc1NC1CC1"
discrete_label = "F"

[[record]]
molecule = "COc1ccc(Nc2ncc(C(F)(F)F)c(NC3CC3)n2)cc1C1OCCCO1"
discrete_label = "F"

[[record]]
molecule = "OCC1CSC(c2cccc(Nc3ncc(Br)c(NC4CC4)n3)c2)S1 (centres unmarked)"
discrete_label = "F"

[[record]]
molecule = "CC1CSC(c2cccc(Nc3ncc(Cl)c(NC4CC4)n3)c2)S1 (centres unmarked)"
discrete_label = "T"

[[record]]
molecule = "COc1ccc(Nc2ncc(Br)c(NC3CCC3)n2)cc1C1OCCO1"
discrete_label = "F"

[[record]]
molecule = "Fc1ccc(Nc2ncc(Br)c(NC3CCC3)n2)cc1C1OCCCO1"
discrete_label = "F"

[[record]]
molecule = "CC1CSC(c2cccc(Nc3ncc(C(F)(F)F)c(NC4CC4)n3)c2)S1 (centres unmarked)"
discrete_label = "T"

[[record]]
molecule = "OCC1CSC(c2cccc(Nc3ncc(C(F)(F)F)c(NC4CC4)n3)c2)S1 (centres unmarked)"
discrete_label = "F"

[[record]]
molecule = "Fc1ccc(Nc2ncc(C(F)(F)F)c(NC3CC3)n2)cc1C1OCCO1"
discrete_label = "F"

[[record]]
molecule = "COc1ccc(Nc2ncc(Br)c(NC3CC3)n2)cc1C1OCCO1"
discrete_label = "F"

[[record]]
molecule = "Brc1cnc(Nc2cccc(C3OCCCO3)c2)nc1NC1CCC1"
discrete_label = "F"

[[record]]
molecule = "OCC1CSC(c2cccc(Nc3ncc(Cl)c(NC4CCC4)n3)c2)S1 (centres unmarked)"
discrete_label = "F"

[[record]]
molecule = "Fc1ccc(Nc2ncc(Br)c(NC3CCC3)n2)cc1C1OCCO1"
discrete_label = "F"

[[record]]
molecule = "CC1CSC(c2cccc(Nc3ncc(Br)c(NC4CC4)n3)c2)S1 (centres unmarked)"
discrete_label = "T"

[[record]]
molecule = "CCOCCOCC1COC(c2cccc(Nc3ncc(Cl)c(NC4CC4)n3)c2)O1 (centres unmarked)"
discrete_label = "F"

